System: HCC-2998 colon
assay text: NCI tumour cell line growth inhibition, 48 h
measurement type: TGI

Requested read-out: TGI. Entry: Cc1cc2nc(N3C(=O)/C(=C/Cc4ccco4)N=C3c3ccccc3)sc2cc1C
55.7 µM

Requested read-out: TGI. Entry: CC(C)Oc1cccc(N2C(CCc3c[nH]c4ccc(Br)cc34)=NS(=O)(=O)c3cnccc32)c1
> 100 µM

Requested read-out: TGI. Entry: O=C(O)c1ccccc1NCn1nc(-c2ccccc2O)oc1=S
86.7 µM

Requested read-out: TGI. Entry: COc1ccc2oc(=O)c(-c3cc4c(c(C)n3)c(=O)oc3ccc(OC)cc34)cc2c1
> 100 µM

Requested read-out: TGI. Entry: COc1cc(C=O)cc(C=Nc2ccc(Br)cc2)c1O
38.9 µM

Requested read-out: TGI. Entry: CN(C)c1cccc2c(S(=O)(=O)NCCN)cccc12
> 100 µM

Requested read-out: TGI. Entry: COc1ccc(/C(C=O)=C(\Cl)c2ccc(OC)c(OC)c2)cc1
> 100 µM

Requested read-out: TGI. Entry: O=C(O)CCCc1ccc2c(c1)C(C(=O)O)CC2 (stereo unspecified)
> 100 µM

Requested read-out: TGI. Entry: CS(=O)(=O)OCCN1CCN(C(=O)c2ccc(Cl)c3c(Nc4ccc(S(=O)(=O)N=C(N)N)cc4)c4ccccc4nc23)CC1
> 100 µM

Requested read-out: TGI. Entry: Cc1ccc(-n2c3nc(=O)n(C)c(=O)c-3nc3ccccc32)c(C)c1
19 µM

Requested read-out: TGI. Entry: NC1=NC(c2ccccc2Cl)c2c(n[nH]c2N)N1 (stereo unspecified)
> 100 µM

Requested read-out: TGI. Entry: O=C1Nc2ccc(-c3cccnc3)cc2/C1=C/c1cc(Br)c(O)c(Br)c1
> 25 µM

Requested read-out: TGI. Entry: CCCCCCCCCC1CC(=O)OC23CCCC(=O)C12O3 (stereo unspecified)
> 100 µM

Requested read-out: TGI. Entry: Nc1nc(Cl)c2ncn(Cc3ccc(C45CC6CC(CC(C6)C4)C5)c(OCc4cc(F)c(F)cc4F)c3)c2n1
5.58 µM

Requested read-out: TGI. Entry: C[C@H]1CCC/C=C/[C@@H]2C[C@H](OC3OC(CO)C(O)C(O)C3O)C[C@H]2[C@H](O)/C=C/C(=O)O1 (stereo partly specified)
> 100 µM

Requested read-out: TGI. Entry: O=c1c2ccccc2nc(-c2cccc(Cl)c2)n1NC1OC(CO)C(O)C(O)C1O (stereo unspecified)
> 100 µM

Requested read-out: TGI. Entry: C/C(=N\NC(=S)NC(C)(C)C)c1nc2ncccc2[nH]1
> 68.6 µM

Requested read-out: TGI. Entry: NC(=O)CSc1nc2ccccc2c(=O)n1N
> 100 µM

Requested read-out: TGI. Entry: CC(C)C(NCc1c2ccccc2[n+](C)c2ccccc12)C(=O)O (stereo unspecified)
29.3 µM

Requested read-out: TGI. Entry: CCOC(=O)C1=C(C)N(NC(N)=O)C2(N)N(NC(N)=O)C(C)=C(C(=O)OCC)C12C#N (stereo unspecified)
> 100 µM

Requested read-out: TGI. Entry: COS(=O)c1cc(Cl)cc(Cl)c1OC(=O)CSSCC(=O)Oc1c(Cl)cc(Cl)cc1S(=O)OC (stereo unspecified)
40.3 µM

Provenance of the data: PubChem BioAssay (NCI)
